System: SH-SY5Y
TEST NAME: Neuroprotective activity against Fenton reagent-induced hydroxy radical-stimulated cytotoxicity in human SH-SY5Y cells assessed as cell survival at 1 to 1000 uM preincubated for 1 hr followed by Fenton reagent challenge for 2 hrs by fluorescence-based LIVE/DEAD viability/cytotoxicity assay
Format: functional
Activity calls are given as the source filed them. No cut-off for these calls is given here.
Please reply with one of these outcomes: active, inactive

These solved cases illustrate the format of a correct answer.
- MOLECULE: "COc1nc(N2C(=O)CCC2=O)nc(OC)c1O"
  DISCRETE LABEL: "active"
- MOLECULE: "c1cnc(N2CCCC2)nc1"
  DISCRETE LABEL: "inactive"
- MOLECULE: "CN(C)S(=O)(=O)N1CC(=O)N(c2ncc(O)cn2)C(=O)C1"
  DISCRETE LABEL: "active"
- MOLECULE: "O=C1CCC(=O)N1c1ncc(O)cn1"
  DISCRETE LABEL: "active"
- MOLECULE: "COc1cc(OC)nc(N2CCCC2)n1"
  DISCRETE LABEL: "inactive"
- MOLECULE: "Cc1c(C)c2c(c(C)c1O)CCC(C)(C(=O)O)O2 (configuration not stated)"
  DISCRETE LABEL: "active"

Please look at the following molecule next.
Query: GET /call?item= Oc1c(I)cc(Cl)c2cccnc12 returns the recorded outcome of this test.
Result: active

###

Test system: ARPE-19
TEST NAME: Neuroprotective activity against Fenton reagent-induced ROS generation-stimulated cytotoxicity in human ARPE19 cells assessed as cell viability at 1 mM after 2 hrs by MTS assay
Type: functional, cell-based
Activity calls are given as the source filed them. The calls are words filed in the database; no cut-off is given here.
Hello, when you answer, please use one of the following outcomes: YES for active, NO for inactive

Consider the following illustrative entries.
- COMPOUND: "COc1cc(OC)nc(N2C(=O)CCCC2=O)n1"
  DISCRETE LABEL: "YES"
- COMPOUND: "c1cnc(N2CCCC2)nc1"
  DISCRETE LABEL: "NO"
- COMPOUND: "Oc1cnc(N2CCCC2)nc1"
  DISCRETE LABEL: "YES"

Query: Kindly provide the recorded test outcome for the following compound: Cc1c(C)c2c(c(C)c1O)CCC(C)(C(=O)O)O2 (stereo not given) [TROLOX]
Result: YES

Query: Then what about the compound O=C1CCC(=O)N1c1ncc(O)cn1 ?
Result: YES

###

Tested on: SH-SY5Y
TEST NAME: Neuroprotective activity against Fenton reagent-induced ROS generation in human SH-SY5Y cells assessed as increase in GSH level at 1 mM after 2 hrs by DTNB method
Type: functional, cell-based
Active and inactive are the calls of the source. No cut-off for these calls is given here.
READOUT NAME: Activity

- MOL: "COc1cc(OC)nc(N2CCCC2)n1"
  Activity: "Active"
- MOL: "O=C1CCC(=O)N1c1ncc(O)cn1"
  Activity: "Active"
- MOL: "COc1nc(N2C(=O)CCCC2=O)nc(OC)c1O"
  Activity: "Active"
- MOL: "c1cnc(N2CCCCC2)nc1"
  Activity: "Active"
- MOL: "c1cnc(N2CCCC2)nc1"
  Activity: "Active"
- MOL: "COc1nc(N2CCCC2)nc(OC)c1O"
  Activity: "Active"
- MOL: "Oc1cnc(N2CCCC2)nc1"
  Activity: "Active"
- MOL: "COc1nc(N2CCCCC2)nc(OC)c1O"
  Activity: "Active"
- MOL: "O=C1CCC(=O)N1c1ncccn1"
  Activity: "Active"
- MOL: "CN(C)S(=O)(=O)N1CC(=O)N(c2ncc(O)cn2)C(=O)C1"
  Activity: "Active"

Query: Could you share which Activity value was measured for Oc1c(I)cc(Cl)c2cccnc12 ?
Result: Active

Query: How about this molecule: O=C1CCCC(=O)N1c1ncccn1
Result: Active

###

TEST NAME: Metal chelating activity assessed as stoichiometric ratio of compound to Cu+ ion at 0.1 to 0.5 mM of compound and metal ion mixture after 45 mins by spectrophotometric analysis
Format: physicochemical
PARTICULARS: 0.75 h, 500 µM
# Ratio per record follows
Please give the numeric answer without any surrounding text.

Query: Look up Ratio for this compound: COc1nc(N2C(=O)CCCC2=O)nc(OC)c1O
Result: 1.97

Query: Request: COc1nc(N2C(=O)CCC2=O)nc(OC)c1O
Result: 2.03

Query: Lookup O=C1CCC(=O)N1c1ncc(O)cn1
Result: 2.01

Query: Another compound to look at: O=C1CCCC(=O)N1c1ncccn1
Result: 1.9

Query: Another compound to look at: COc1cc(OC)nc(N2C(=O)CCCC2=O)n1
Result: 1.9

###

Known Ratio of a selection of compounds
TEST NAME: Metal chelating activity assessed as stoichiometric ratio of compound to Fe2+ ion at 0.1 to 0.5 mM of compound and metal ion mixture after 45 mins by spectrophotometric analysis
Format: physicochemical
PARTICULARS: 0.75 h, 500 µM
// return just the number, without any unit appended

Query: Fill in the blank: the reported Ratio of COc1nc(N2C(=O)CCCC2=O)nc(OC)c1O is ____.
Result: 1.97

Query: # iterate: COc1cc(OC)nc(N2C(=O)CCCC2=O)n1
Result: 1.96

Query: What about COc1nc(N2C(=O)CCC2=O)nc(OC)c1O ?
Result: 2.03

Query: Cool, now COc1cc(OC)nc(N2C(=O)CCC2=O)n1
Result: 2.02

###

Quick list: Ratio per entry.
TEST NAME: Metal chelating activity assessed as stoichiometric ratio of compound to Cu+ ion at 0.1 to 0.5 mM of compound and metal ion mixture after 45 mins by spectrophotometric analysis
Assay type: physicochemical
PARTICULARS: 0.75 h, 500 µM
Number, no unit, nothing else.

// solved cases for Ratio follow
- MOL: "O=C1CCC(=O)N1c1ncccn1"
  Ratio: 2.01
- MOL: "O=C1CCCC(=O)N1c1ncc(O)cn1"
  Ratio: 1.86

# ---- query compound ----
Query: // Ratio lookup, key: COc1cc(OC)nc(N2C(=O)CCC2=O)n1
Result: 1.92

Every entry's value here was drawn from ChEMBL document CHEMBL3739318.
